FYI, the data here is from paper PMC10663500.

Biological target: T1, human programmed cell death protein 1 (hPD-1) C93S (aa 24-167) (Homo sapiens, UniProt Q15116, C93S)
T1 construct: made as a fusion with a TEV site and human Fc; the Fc was cut off with TEV protease; source: Expi293F, purified (Protein A, TEV cleavage of Fc, SEC; monomer fractions); not shown: Fc (human), C-terminal, cleaved
T1 sequence (Q15116 24-167 C93S): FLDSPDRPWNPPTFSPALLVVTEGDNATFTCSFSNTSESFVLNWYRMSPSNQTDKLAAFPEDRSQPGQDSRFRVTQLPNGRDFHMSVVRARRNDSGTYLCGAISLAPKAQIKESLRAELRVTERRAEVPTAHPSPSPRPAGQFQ
Assay: SPR; Carterra LSA; Fab from the ammonium sulfate precipitate of the culture supernatant immobilised on a NiHC200M chip; hPD-1 (1-1024 nM) or mPD-1-Fc (4-1024 nM) as analyte, fourfold dilution series, no regeneration; HBS-EP pH 7.4, 25 °C; medians over the spots of a construct, KD = koff/kon
Details: one partner purified
endpoint label: koff

Asked: Dear colleague, I am looking for the recorded koff of the following binder: toripalimab Fab L.V99M (Fab, V domains shown, as the heavy chain of Sm3; light chain of Sm3 with this change; numbers count from the chain's first residue; source: Brevibacillus, culture supernatant (ammonium sulfate precipitate); not shown: 6xHis, C-terminal, kept; 6xHN, C-terminal, kept) VH: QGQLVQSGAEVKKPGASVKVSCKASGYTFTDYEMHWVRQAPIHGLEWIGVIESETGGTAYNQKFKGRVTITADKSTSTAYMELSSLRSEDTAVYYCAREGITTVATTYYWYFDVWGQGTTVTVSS VL: DVVMTQSPLSLPVTLGQPASISCRSSQSIVHSNGNTYLEWYLQKPGQSPQLLIYKVSNRFSGVPDRFSGSGSGTDFTLKISRVEAEDVGVYYCFQGSHMPLTFGQGTKLEIK
Given back: 3.17e-05 s⁻¹

Asked: What does the data say about its koff? Entry: toripalimab Fab L.T36Y (Fab, V domains shown, as the heavy chain of Sm3; light chain of Sm3 with this change; numbers count from the chain's first residue; source: Brevibacillus, culture supernatant (ammonium sulfate precipitate); not shown: 6xHis, C-terminal, kept; 6xHN, C-terminal, kept) VH: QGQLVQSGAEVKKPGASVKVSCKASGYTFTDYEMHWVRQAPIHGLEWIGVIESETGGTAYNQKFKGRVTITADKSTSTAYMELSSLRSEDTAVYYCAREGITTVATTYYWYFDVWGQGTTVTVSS VL: DVVMTQSPLSLPVTLGQPASISCRSSQSIVHSNGNYYLEWYLQKPGQSPQLLIYKVSNRFSGVPDRFSGSGSGTDFTLKISRVEAEDVGVYYCFQGSHVPLTFGQGTKLEIK
Given back: < 1e-05 s⁻¹

Asked: Request the reported koff associated with toripalimab Fab L.Q27Y (Fab, V domains shown, as the heavy chain of Sm3; light chain of Sm3 with this change; numbers count from the chain's first residue; source: Brevibacillus, culture supernatant (ammonium sulfate precipitate); not shown: 6xHis, C-terminal, kept; 6xHN, C-terminal, kept) VH: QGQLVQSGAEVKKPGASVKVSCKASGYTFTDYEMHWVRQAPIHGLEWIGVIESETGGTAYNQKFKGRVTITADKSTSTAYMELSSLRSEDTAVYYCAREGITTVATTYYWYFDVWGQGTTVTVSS VL: DVVMTQSPLSLPVTLGQPASISCRSSYSIVHSNGNTYLEWYLQKPGQSPQLLIYKVSNRFSGVPDRFSGSGSGTDFTLKISRVEAEDVGVYYCFQGSHVPLTFGQGTKLEIK
Given back: < 1e-05 s⁻¹
